Recorded AUC for the following molecules
Protocol details: Pharmacokinetic studies in rats
Details: rat, in vivo, 3 mg/kg, 3 mg/kg in EtOH/Solutol/H2O formulation, Rat 2, read-out: AUCnorm
A number alone suffices; assume ng·h/mL.

Molecule: [2H]c1c(Cl)c([2H])c(Oc2c([2H])c([2H])c(C#N)c([2H])c2S(=O)(=O)N2CCNC(=O)C2)c([2H])c1Cl [Compound 36]
AUC (ng·h/mL): 90.6

// switching to the query molecule
Assign AUC to the following record: N#Cc1ccc(Oc2cc(Cl)cc(Cl)c2)c(S(=O)(=O)N2CCNC(=O)C2)c1 [Compound C1, reference compound] 150
